biological target: 5-HT2B (Homo sapiens, UniProt P41595); assay: Calcium flux (FLIPR) assay, human 5-HT2B stably expressed in HEK-293 (Flp-In-293) cells; settings: read-out: EC50, nM 5-HT2B, human 5-HT2B in HEK-293 cells, NA = no activity at 10 μM
Sequence (P41595 whole entry): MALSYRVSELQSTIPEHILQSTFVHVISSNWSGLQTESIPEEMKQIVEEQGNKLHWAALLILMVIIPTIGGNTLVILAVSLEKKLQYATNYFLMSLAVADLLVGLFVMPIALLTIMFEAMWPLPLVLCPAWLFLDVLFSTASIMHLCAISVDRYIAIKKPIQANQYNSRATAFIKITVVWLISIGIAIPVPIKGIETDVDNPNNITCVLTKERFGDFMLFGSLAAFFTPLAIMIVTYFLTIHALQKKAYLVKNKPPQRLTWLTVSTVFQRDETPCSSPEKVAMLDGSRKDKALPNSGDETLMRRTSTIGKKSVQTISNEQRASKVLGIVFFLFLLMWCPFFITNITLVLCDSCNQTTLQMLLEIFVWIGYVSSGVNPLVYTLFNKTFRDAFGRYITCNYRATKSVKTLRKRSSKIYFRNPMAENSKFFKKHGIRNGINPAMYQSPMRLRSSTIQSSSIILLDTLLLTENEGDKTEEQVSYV
The reader will find reported EC50 values listed item by item below.
Entry rule: numbers only, all in nM.

Example results:
- COMPOUND: "COc1ccc(Cl)c(Cl)c1C1CC1CN (single isomer, unassigned; (+)) [(+)-Example 36]"
  READING_UNIT: "nM"
  EC50: 534
- COMPOUND: "COc1ccc(Cl)c(Cl)c1C1CC1CN (single isomer, unassigned; (-)) [(−)-Example 36]"
  READING_UNIT: "nM"
  EC50: 51
- COMPOUND: "COc1cc(Cl)c(Cl)cc1C1CC1CN (single isomer, unassigned; (+)) [(+)-Example 33]"
  READING_UNIT: "nM"
  EC50: 31
- COMPOUND: "COc1ccc(Cl)c(F)c1C1CC1CN (single isomer, unassigned; (-)) [(−)-Example 29]"
  READING_UNIT: "nM"
  EC50: 165
- COMPOUND: "COc1cc(Cl)c(Cl)cc1C1CC1CN (single isomer, unassigned; (-)) [(−)-Example 33]"
  READING_UNIT: "nM"
  EC50: 696

Recall the recorded EC50 for COc1ccc(F)c(F)c1C1CC1CN (single isomer, unassigned; (-)) [(−)-Example 45] with 5-HT2B (Homo sapiens, UniProt P41595) and state it.
462

Recall the recorded EC50 for C=CCOc1ccc(Cl)c(Cl)c1C1CC1CN (single isomer, unassigned; (-)) [(−)-Example 39] with 5-HT2B (Homo sapiens, UniProt P41595) and state it.
3960
